Source of measurements: the NIST ThermoML archive (doi:10.1021/je900660x)

# protocol_text: molar heat capacity at constant pressure
# experimental_context: 293.15 K; 101.33 kPa; Liquid; Large sample (1 g) DSC
result_type: molar heat capacity at constant pressure (J/K/mol)

{"molecule": "CCCC[N+](C)(CCCC)CCCC.NCCS(=O)(=O)[O-] [N,N-dibutyl-N-methyl-1-butanaminium 2-aminoethanesulfonate]", "readout_number": 822.3}
{"molecule": "CCCC[P+](CCCC)(CCCC)CCCC.O=C([O-])[C@@H]1CCCN1 [tetrabutylphosphonium L-prolinate]", "readout_number": 838}
{"molecule": "CCCC[P+](CCCC)(CCCC)CCCC.N[C@@H](CO)C(=O)[O-] [tetrabutylphosphonium L-serinate]", "readout_number": 742}

----------
# experimental_context: 333.15 K; 101.33 kPa; Liquid
result_type: viscosity (mPa·s)

Known viscosity results, listed for orientation:
{"compound": "CCCC[P+](CCCC)(CCCC)CCCC.NCCS(=O)(=O)[O-] [tetrabutylphosphonium 2-aminoethanesulfonate]", "unit_symbol": "mPa·s", "viscosity": 106.7}
{"compound": "CCCC[P+](CCCC)(CCCC)CCCC.N[C@@H](CS)C(=O)[O-] [tetrabutylphosphonium L-cysteinate]", "unit_symbol": "mPa·s", "viscosity": 208.4}
{"compound": "CCCC[P+](CCCC)(CCCC)CCCC.N[C@@H](CO)C(=O)[O-] [tetrabutylphosphonium L-serinate]", "unit_symbol": "mPa·s", "viscosity": 122.9}

(P) CCCC[P+](CCCC)(CCCC)CCCC.C[C@@H](O)[C@H](N)C(=O)[O-] [tetrabutylphosphonium L-threoninate]
(Q) CCCC[N+](C)(CCCC)CCCC.NCCCC[C@H](N)C(=O)[O-] [N,N-dibutyl-N-methyl-1-butanaminium L-lysinate]
(R) CCCC[N+](C)(CCCC)CCCC.NCCS(=O)(=O)[O-] [N,N-dibutyl-N-methyl-1-butanaminium 2-aminoethanesulfonate]
Ask: Put the compounds in ascending order of viscosity. Note for the reader: the ranking is given by listing the labels in the order requested.
Result: P, Q, R

----------
# experimental_context: 298.15 K; 101.33 kPa; Liquid; Vibrating tube method
result_type: mass density (kg/m3)

{"compound": "CCCC[P+](CCCC)(CCCC)CCCC.N[C@@H](CO)C(=O)[O-] [tetrabutylphosphonium L-serinate]", "readout_number": 992.3}
{"compound": "CCCC[P+](CCCC)(CCCC)CCCC.C[C@@H](O)[C@H](N)C(=O)[O-] [tetrabutylphosphonium L-threoninate]", "readout_number": 979.9}
{"compound": "CCCC[P+](CCCC)(CCCC)CCCC.O=C([O-])[C@@H]1CCCN1 [tetrabutylphosphonium L-prolinate]", "readout_number": 992.5}
{"compound": "CCCC[N+](C)(CCCC)CCCC.NCCCC[C@H](N)C(=O)[O-] [N,N-dibutyl-N-methyl-1-butanaminium L-lysinate]", "readout_number": 979.7}
{"compound": "CCCC[N+](C)(CCCC)CCCC.C[C@@H](O)[C@H](N)C(=O)[O-] [N,N-dibutyl-N-methyl-1-butanaminium L-threoninate]", "readout_number": 999.5}
{"compound": "CCCC[N+](C)(CCCC)CCCC.N[C@@H](CO)C(=O)[O-] [N,N-dibutyl-N-methylbutanaminium L-serinate]", "readout_number": 1015.7}
{"compound": "CCCC[P+](CCCC)(CCCC)CCCC.NCCS(=O)(=O)[O-] [tetrabutylphosphonium 2-aminoethanesulfonate]", "readout_number": 1026.8}

----------
# protocol_text: molar heat capacity at constant pressure
# experimental_context: 298.15 K; 101.33 kPa; Liquid; Large sample (1 g) DSC
result_type: molar heat capacity at constant pressure (J/K/mol)

{"compound": "CC(C)[C@H](N)C(=O)[O-].CCCC[P+](CCCC)(CCCC)CCCC [tetrabutylphosphonium L-valinate]", "readout_number": 747.4}
{"compound": "CCCC[N+](C)(CCCC)CCCC.C[C@@H](O)[C@H](N)C(=O)[O-] [N,N-dibutyl-N-methyl-1-butanaminium L-threoninate]", "readout_number": 752.6}
{"compound": "CCCC[P+](CCCC)(CCCC)CCCC.NCCCC[C@H](N)C(=O)[O-] [tetrabutylphosphonium L-lysinate]", "readout_number": 997.4}
{"compound": "CCCC[P+](CCCC)(CCCC)CCCC.O=C([O-])[C@@H]1CCCN1 [tetrabutylphosphonium L-prolinate]", "readout_number": 844.2}
{"compound": "CCCC[N+](C)(CCCC)CCCC.NCCCC[C@H](N)C(=O)[O-] [N,N-dibutyl-N-methyl-1-butanaminium L-lysinate]", "readout_number": 823.8}

----------
# experimental_context: 333.15 K; 101.33 kPa; Liquid; Vibrating tube method
result_type: mass density (kg/m3)

{"molecule": "CCCC[P+](CCCC)(CCCC)CCCC.NCCCC[C@H](N)C(=O)[O-] [tetrabutylphosphonium L-lysinate]", "mass density [kg/m3]": 946.2}
{"molecule": "CCCC[N+](C)(CCCC)CCCC.NCCS(=O)(=O)[O-] [N,N-dibutyl-N-methyl-1-butanaminium 2-aminoethanesulfonate]", "mass density [kg/m3]": 1029.8}
{"molecule": "CCCC[P+](CCCC)(CCCC)CCCC.N[C@@H](CS)C(=O)[O-] [tetrabutylphosphonium L-cysteinate]", "mass density [kg/m3]": 1011.7}
{"molecule": "CCCC[N+](C)(CCCC)CCCC.NCCCC[C@H](N)C(=O)[O-] [N,N-dibutyl-N-methyl-1-butanaminium L-lysinate]", "mass density [kg/m3]": 958.6}

----------
# experimental_context: 353.15 K; 101.33 kPa; Liquid; Vibrating tube method
result_type: mass density (kg/m3)

{"compound": "CCCC[P+](CCCC)(CCCC)CCCC.NCCCC[C@H](N)C(=O)[O-] [tetrabutylphosphonium L-lysinate]", "mass density, kg/m3": 934.4}
{"compound": "CCCC[N+](C)(CCCC)CCCC.N[C@@H](CO)C(=O)[O-] [N,N-dibutyl-N-methylbutanaminium L-serinate]", "mass density, kg/m3": 981.9}
{"compound": "CCCC[P+](CCCC)(CCCC)CCCC.N[C@@H](CS)C(=O)[O-] [tetrabutylphosphonium L-cysteinate]", "mass density, kg/m3": 999.1}

----------
# experimental_context: 343.15 K; 101.33 kPa; Liquid
result_type: viscosity (mPa·s)

{"compound": "CCCC[P+](CCCC)(CCCC)CCCC.NCCS(=O)(=O)[O-] [tetrabutylphosphonium 2-aminoethanesulfonate]", "readout_number": 67.5}

(1) CCCC[P+](CCCC)(CCCC)CCCC.C[C@@H](O)[C@H](N)C(=O)[O-] [tetrabutylphosphonium L-threoninate]
(2) CCCC[N+](C)(CCCC)CCCC.NCCS(=O)(=O)[O-] [N,N-dibutyl-N-methyl-1-butanaminium 2-aminoethanesulfonate]
(3) CCCC[P+](CCCC)(CCCC)CCCC.O=C([O-])[C@@H]1CCCN1 [tetrabutylphosphonium L-prolinate]
(4) CCCC[N+](C)(CCCC)CCCC.NCCCC[C@H](N)C(=O)[O-] [N,N-dibutyl-N-methyl-1-butanaminium L-lysinate]
Ask: Let's sort these by viscosity, smallest first. Go ahead? To answer, write out the labels according to the requested order.
Result: 1, 3, 4, 2

----------
# experimental_context: 313.15 K; 101.33 kPa; Liquid; Vibrating tube method
result_type: mass density (kg/m3)

{"compound": "CCCC[N+](C)(CCCC)CCCC.NCCCC[C@H](N)C(=O)[O-] [N,N-dibutyl-N-methyl-1-butanaminium L-lysinate]", "unit_symbol": "kg/m3", "mass density": 970.7}
{"compound": "CCCC[P+](CCCC)(CCCC)CCCC.N[C@@H](CO)C(=O)[O-] [tetrabutylphosphonium L-serinate]", "unit_symbol": "kg/m3", "mass density": 983}
{"compound": "CCCC[P+](CCCC)(CCCC)CCCC.N[C@@H](CS)C(=O)[O-] [tetrabutylphosphonium L-cysteinate]", "unit_symbol": "kg/m3", "mass density": 1023.8}
{"compound": "CCCC[P+](CCCC)(CCCC)CCCC.C[C@@H](O)[C@H](N)C(=O)[O-] [tetrabutylphosphonium L-threoninate]", "unit_symbol": "kg/m3", "mass density": 970.7}
{"compound": "CCCC[P+](CCCC)(CCCC)CCCC.O=C([O-])[C@@H]1CCCN1 [tetrabutylphosphonium L-prolinate]", "unit_symbol": "kg/m3", "mass density": 983}
{"compound": "CCCC[P+](CCCC)(CCCC)CCCC.NCCS(=O)(=O)[O-] [tetrabutylphosphonium 2-aminoethanesulfonate]", "unit_symbol": "kg/m3", "mass density": 1017.6}
{"compound": "CCCC[N+](C)(CCCC)CCCC.C[C@@H](O)[C@H](N)C(=O)[O-] [N,N-dibutyl-N-methyl-1-butanaminium L-threoninate]", "unit_symbol": "kg/m3", "mass density": 990}
{"compound": "CCCC[N+](C)(CCCC)CCCC.N[C@@H](CO)C(=O)[O-] [N,N-dibutyl-N-methylbutanaminium L-serinate]", "unit_symbol": "kg/m3", "mass density": 1006.3}
